target: UniProt:Q64669; assay: Induction of NQO1 activity in mouse Hepa-1c1c7 cells after 48 hrs; assay type: cell-based
Sequence (Q64669 whole entry): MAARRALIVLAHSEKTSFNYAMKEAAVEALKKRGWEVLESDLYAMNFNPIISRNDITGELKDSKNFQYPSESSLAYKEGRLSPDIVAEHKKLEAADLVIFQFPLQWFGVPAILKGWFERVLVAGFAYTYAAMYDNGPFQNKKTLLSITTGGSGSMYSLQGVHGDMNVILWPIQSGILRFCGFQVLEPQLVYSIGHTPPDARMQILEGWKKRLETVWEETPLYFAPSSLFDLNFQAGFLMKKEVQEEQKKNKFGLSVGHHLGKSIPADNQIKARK
ASSAY_METRIC: CD (nM)
Give bare numbers, in nM.

1. C=C[C@]12C=C(C#N)C(=O)C=C1[C@@]1(C)C=C(C#N)C(=O)C(C)(C)[C@@H]1CC2 (racemic)	30
2. CC[C@]12C=C(C#N)C(=O)C=C1[C@@]1(C)C=C(C#N)C(=O)C(C)(C)[C@@H]1CC2 (racemic)	18
3. C#C[C@@]12C=C(C#N)C(=O)C=C1[C@]1(C)C=C(C#N)C(=O)C(C)(C)[C@H]1CC2	0.9
4. C#C[C@]12C=C(C#N)C(=O)C=C1[C@@]1(C)C=C(C#N)C(=O)C(C)(C)[C@@H]1CC2 (racemic)	0.9
5. CC1(C)C(=O)C(C#N)=C[C@]2(C)C3=CC(=O)C(C#N)=C[C@]3(C#CC(=O)O)CC[C@@H]12 (racemic)	150

// each listed compound needs a value for CD
1. COC(=O)C#C[C@]12C=C(C#N)C(=O)C=C1[C@@]1(C)C=C(C#N)C(=O)C(C)(C)[C@@H]1CC2 (racemic)
2. CC1(C)C(=O)C(C#N)=C[C@]2(C)C3=CC(=O)C(C#N)=C[C@]3(C#C[Si](C)(C)C)CC[C@@H]12 (racemic)

1. 85
2. 3.5

Taken from ChEMBL document CHEMBL1759862.
